# SYSTEM: Prostaglandin E2 receptor EP2 subtype (Homo sapiens, UniProt P43116)
# Sequence (P43116 whole entry): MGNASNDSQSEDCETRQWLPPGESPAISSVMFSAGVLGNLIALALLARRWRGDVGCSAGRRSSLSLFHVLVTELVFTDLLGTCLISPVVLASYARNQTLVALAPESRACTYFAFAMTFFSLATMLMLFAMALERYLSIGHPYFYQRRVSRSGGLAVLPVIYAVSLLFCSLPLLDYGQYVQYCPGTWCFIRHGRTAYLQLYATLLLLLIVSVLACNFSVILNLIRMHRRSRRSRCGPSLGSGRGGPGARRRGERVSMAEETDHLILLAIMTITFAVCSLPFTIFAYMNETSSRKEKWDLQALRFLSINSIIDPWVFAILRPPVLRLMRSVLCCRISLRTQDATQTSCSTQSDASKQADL
RECORDED METRIC: Ki (µM)

In: Returns the measured Ki for the input compound. Input: O=C(/C=C/c1ccccc1-c1ccc(Cl)c(Cl)c1)NS(=O)(=O)c1cccs1
Out: 27

A = Cc1cccc(OCCCOc2ccc(-c3ccccc3CC(C)(C)C(=O)NS(=O)(=O)c3cccs3)cc2)c1
B = c1ccc(CCSCc2ccc(-c3ccccc3CCc3nnn[nH]3)cc2)cc1
In: Compare the recorded Ki of A and B ; state which is larger. Label of pick, please.
Out: A
